# credit: patent US20230250096A1

Consider the following compounds; for each one, report its IC50.
Biological target: menin/MLL (terbium chelate-labeled menin, FITC-MBM1 peptide) (Homo sapiens, UniProt O00255, T541A)
Construct: Menin (a.a 1-610-6xhis tag, 2.3 mg/mL in 20 mM Hepes)
Assay: Menin/MLL homogenous time-resolved fluorescence (HTRF) assay
Details: 30 min incubation
# number only, unit nM dropped from output

Find the recorded IC50 belonging to Cc1cncc2c1c(C[C@@H]1CCN(CC3CCN(C)C(=O)C3)C1)cn2-c1ccc(F)cc1C(=O)N(C)C(C)C (mixture of isomers) and report it.
0.581

Find the recorded IC50 belonging to COCC[C@@H](C1CCOCC1)N1CC[C@@H](Cc2cn(-c3ccc(F)cc3C(=O)N(C)C(C)C)c3cncc(C)c23)C1 (single isomer, unassigned) [Compound 252b] and report it.
0.25

Find the recorded IC50 belonging to COC(=O)N1CCC(CN2CC[C@@H](Cc3cn(-c4ccc(F)cc4C(=O)N(C[C@@H](C)O)C(C)C)c4cncc(C)c34)C2)CC1 and report it.
0.128

Find the recorded IC50 belonging to Cc1cncc2c1c(C[C@H]1CCN(C[C@H]3CC[C@H](NS(C)(=O)=O)CC3)C1)cn2-c1ccc(F)cc1C(=O)N(C)C(C)C (single isomer, unassigned) and report it.
0.049

Find the recorded IC50 belonging to CC(=O)N1CCC(CN2CC[C@@H](Cc3cn(-c4ccc(F)cc4C(=O)N4CCC(O)C4(C)C)c4cncc(C)c34)C2)CC1 (stereo partly shown) and report it.
0.155

Find the recorded IC50 belonging to Cc1cncc2c1c(C[C@@H]1CCN(CC3CCN(C(=O)C(C)(C)O)CC3)C1)cn2-c1ccc(F)cc1C(=O)N1CC2CC1CO2 (stereo partly shown) and report it.
0.204

Find the recorded IC50 belonging to Cc1cncc2c1c(CC1CN(CC3(C)COC3)C1)cn2-c1ccc(F)cc1C(=O)N(C)C(C)C and report it.
0.046

Find the recorded IC50 belonging to CC(=O)N1CCC(N2CC(Cc3cn(-c4ccc(F)cc4C(=O)N(C)C(C)C)c4cncc(C)c34)C2)C[C@@H]1C (single isomer, unassigned) [Compound 293b] and report it.
0.152

Find the recorded IC50 belonging to Cc1cncc2c1c(CC1CN(CC3CCOCC3)C1)cn2-c1ccc(F)cc1C(=O)N1CCC12CCC2 and report it.
0.213

Find the recorded IC50 belonging to CNC(=O)N1CCC(CN2CC[C@H](Cc3cn(-c4ccc(F)cc4C(=O)N(C)C(C)C)c4cncc(C)c34)C2)CC1 [Compound 168] and report it.
0.1

Find the recorded IC50 belonging to Cc1cncc2c1c(CC1CN(CC3CCOCC3)C1)cn2-c1ccc(F)cc1C(=O)N1CCCCC1C (stereo not shown) and report it.
0.077

Find the recorded IC50 belonging to Cc1cncc2c1c(CC1CN(CC3CCOCC3)C1)cn2-c1ccc(F)cc1C(=O)N(C)C1(CO)CCC1 and report it.
0.532

Find the recorded IC50 belonging to CNC(=O)C1CC(CN2CCC(Cc3cn(-c4ccc(F)cc4C(=O)N(C)C(C)C)c4cncc(C)c34)CC2)C1 (stereo not shown) and report it.
0.291

###

Consider the following molecules; for each one, report its pIC50.
Tested on: KO-52 cells
Test: Proliferation assay (spheroid confluence, 8 days), KO-52 control cell line
Assay type: cell-based, human
Details: Homo sapiens, read-out: spheroid assay_KO-52 IC50
In simple prose, pIC50 is minus the logarithm base ten of a concentration in moles per litre.

Find the recorded pIC50 belonging to CNC(=O)c1cncc(N2CCC(N3CC(Cc4cn(-c5ccc(F)cc5C(=O)N(C)C(C)C)c5cncc(C)c45)C3)CC2)n1 and report it.
5.70

Find the recorded pIC50 belonging to Cc1cncc2c1c(CC1CN(CC3CCOCC3)C1)cn2-c1ccc(F)cc1C(=O)N(CCO)C(C)C and report it.
5.38

Find the recorded pIC50 belonging to COCC(=O)N1CCC(CN2CC(Cc3cn(-c4ccc(F)cc4C(=O)N(C)C(C)C)c4cncc(C)c34)C2)CC1 and report it.
5.11

Find the recorded pIC50 belonging to Cc1cncc2c1c(CC1CCN(CC3CCN(C(=O)CC#N)CC3)C1)cn2-c1ccc(F)cc1C(=O)N(C)C(C)C (single isomer, unassigned) and report it.
5.57

###

Target: menin/MLL (terbium chelate-labeled menin, FITC-MBM1 peptide) (Homo sapiens, UniProt O00255, T541A)
Construct: Menin (a.a 1-610-6xhis tag, 2.3 mg/mL in 20 mM Hepes)
Sequence (O00255 with tags, fused parts or gaps T541A): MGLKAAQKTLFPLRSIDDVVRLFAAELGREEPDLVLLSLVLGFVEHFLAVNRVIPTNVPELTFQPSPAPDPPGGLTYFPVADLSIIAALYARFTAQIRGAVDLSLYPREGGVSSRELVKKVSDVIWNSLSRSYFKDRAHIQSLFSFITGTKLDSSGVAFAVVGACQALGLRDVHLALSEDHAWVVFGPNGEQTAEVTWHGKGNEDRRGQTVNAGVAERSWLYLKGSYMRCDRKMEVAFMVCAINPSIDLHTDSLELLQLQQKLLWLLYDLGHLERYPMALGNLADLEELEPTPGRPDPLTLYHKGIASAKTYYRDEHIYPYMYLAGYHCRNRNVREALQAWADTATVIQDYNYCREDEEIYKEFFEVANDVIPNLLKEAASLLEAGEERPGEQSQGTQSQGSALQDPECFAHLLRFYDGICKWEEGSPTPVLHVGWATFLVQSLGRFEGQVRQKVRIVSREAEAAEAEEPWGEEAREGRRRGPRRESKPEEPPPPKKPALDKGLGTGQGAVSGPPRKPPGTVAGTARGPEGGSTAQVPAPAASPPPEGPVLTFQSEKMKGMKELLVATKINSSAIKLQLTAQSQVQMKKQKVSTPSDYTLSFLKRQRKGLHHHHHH
Test: Menin/MLL homogenous time-resolved fluorescence (HTRF) assay
Format: binding
Conditions: 30 min incubation
endpoint: pIC50
In simple prose, pIC50 is minus the logarithm base ten of a concentration in moles per litre.

Find the recorded pIC50 belonging to Cc1cncc2c1c(CC1CCN(C[C@H]3CC[C@H](NS(C)(=O)=O)CC3)C1)cn2-c1ccc(F)cc1C(=O)N(C)C(C)C (single isomer, unassigned) and report it.
10.37

Find the recorded pIC50 belonging to Cc1cncc2c1c(C[C@@H]1CCN([C@@H](CCO)C3CCOCC3)C1)cn2-c1ccc(F)cc1C(=O)N(C)C(C)C (single isomer, unassigned) [Compound 253b] and report it.
8.76

Find the recorded pIC50 belonging to Cc1cncc2c1c(CC1CN(CC(=O)N3CCC(F)(F)C3)C1)cn2-c1ccc(F)cc1C(=O)N(C)C(C)C and report it.
8.34

Find the recorded pIC50 belonging to CC(=O)N1CCC(CN2CC(Cc3cn(-c4ccc(F)cc4C(=O)N(C)C(C)C)c4cncc(C)c34)C2)CC1 and report it.
9.75

Find the recorded pIC50 belonging to Cc1cncc2c1c(C[C@@H]1CCN(C3CCN(S(C)(=O)=O)CC3)C1)cn2-c1ccc(F)cc1C(=O)N(C)C(C)C and report it.
9.78

Find the recorded pIC50 belonging to Cc1cncc2c1c(CC1CN(CC3CCOCC3)C1)cn2-c1ccc(F)cc1C(=O)N(CCO)C(C)C and report it.
10.24

Find the recorded pIC50 belonging to CCN(C(=O)c1cc(F)ccc1-n1cc(C[C@H]2CCN(CC3CCN(C(C)=O)CC3)C2)c2c(C)cncc21)C(C)C and report it.
10.14

Find the recorded pIC50 belonging to Cc1cncc2c1c(C=C1CCN(CC3CCOCC3)C1)cn2-c1ccc(F)cc1C(=O)N(C)C(C)C (single isomer, unassigned) [Compound 523a] and report it.
9.42

Find the recorded pIC50 belonging to CC(=O)NC1CCC(N2CC[C@@H](Cc3cn(-c4ccc(F)cc4C(=O)N(C)C(C)C)c4cncc(C)c34)C2)CC1 (stereo partly shown) [Compound 200] and report it.
9.04

Find the recorded pIC50 belonging to Cc1cncc2c1c(C[C@H]1CCN(C(CCCN3CCC(S(C)(=O)=O)CC3)C(C)C)C1)cn2-c1ccc(F)cc1C(=O)N(C)C(C)C (mixture of isomers) and report it.
10.47

Find the recorded pIC50 belonging to Cc1cncc2c1c(C[C@@H]1CCN(CC3CCOCC3)C1)cn2-c1ccc(F)cc1C(=O)N1CC[C@H](O)C1(C)C (single isomer, unassigned) [Compound 364b] and report it.
9.53

Find the recorded pIC50 belonging to Cc1cncc2c1c(CC1CN(CC3CCOCC3)C1)cn2-c1ccc(F)cc1C(=O)N(C)C(C)C and report it.
9.88

Find the recorded pIC50 belonging to COCC1CCCN1C(=O)c1cc(F)ccc1-n1cc(C[C@@H]2CCN(CC3CCN(C(C)=O)CC3)C2)c2c(C)cncc21 (stereo partly shown) and report it.
9.59
